Tested on: rodent lifetime carcinogenesis bioassay, tumor incidence TD50
Experiment: carcinogenic potency in animals, long-term in vivo studies, CPDB compilation (AID 1745844)
Conditions: rat; strain Charles River; males; in drinking water; site: liver; lesion: several types; types named in the paper; dosed 113 weeks; study length 113 weeks
RESULT_TYPE: TD50

GET /values?item= C/C=C/C=O &system= rodent lifetime carcinogenesis bioassay, tumor incidence TD50 returns TD50: 4.2 mg/kg/day

###

Tested on: rodent lifetime carcinogenesis bioassay, tumor incidence TD50
Assay: carcinogenic potency in animals, long-term in vivo studies, CPDB compilation (AID 1745844)
Conditions: mouse; strain Charles River CD1; females; in feed; site: liver; lesion: hemangioma; dosed 93 weeks; study length 100 weeks
Activity calls are given as the source filed them. How the calls were made is not given here.
RESULT_TYPE: TD50

Input O=C1CN(N=Cc2ccc([N+](=O)[O-])o2)C(=O)N1 . Output TD50: 4460 mg/kg/day (inactive)
